Every entry's value here was drawn from patent US8962244B2.

# TARGET DESC: MEX-5 (Caenorhabditis elegans, UniProt Q9XUB2)
# Construct: The fragment of mex-5 containing the TZF domain (amino acids 236-350) was amplified; made in house; host or cells: Escherichia coli JM109
# Sequence (Q9XUB2 236-350): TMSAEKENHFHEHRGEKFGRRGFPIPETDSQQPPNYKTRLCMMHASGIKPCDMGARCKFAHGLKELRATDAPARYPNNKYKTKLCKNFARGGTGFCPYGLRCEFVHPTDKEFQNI
# ASSAY PROTOCOL: Fluorescence polarization screening of MEX-5 binding to fluorescein-labeled TCR2 RNA
# PROTOCOL CONDITIONS: 192 μM test compound; score = polarization relative to no-drug and no-protein controls; 0.25 = 75% inhibition; lowest score = greatest inhibition; read-out: MEX-5 score
MEASURED ATTRIBUTE: remaining activity at 192 µM

{"COMPOUND": "O=c1cc(-c2ccccc2)c2ccc(O)c(O)c2o1", "MEASURED ATTRIBUTE": "remaining activity at 192 µM", "RESULT": "-0.142%"}
{"COMPOUND": "Fc1ccc(-n2c(S)nnc2-c2cccs2)cc1", "MEASURED ATTRIBUTE": "remaining activity at 192 µM", "RESULT": "23.5%"}
{"COMPOUND": "COc1ccccc1C(=O)NC(=S)Nc1ccc(C(=O)O)c(Cl)c1", "MEASURED ATTRIBUTE": "remaining activity at 192 µM", "RESULT": "21.1%"}
{"COMPOUND": "Sc1nnc(COc2cccc3ccccc23)n1-c1ccccc1", "MEASURED ATTRIBUTE": "remaining activity at 192 µM", "RESULT": "19%"}
{"COMPOUND": "CCC(=O)NC(c1ccc(OC)c(OC)c1)c1cc([N+](=O)[O-])c2cccnc2c1O (stereo not drawn)", "MEASURED ATTRIBUTE": "remaining activity at 192 µM", "RESULT": "8.62%"}

Dear colleague, I am looking for the recorded remaining activity at 192 µM of the following compound: "O=c1[nH]c(=S)[nH]c2sc3c(c12)CCCCCCCCCC3" 23.4%

Sample CC1(C)CC(Cc2nnc(S)[nH]2)C(=O)O1 (stereo not drawn) — what was its remaining activity at 192 µM? 5%

Which remaining activity at 192 µM value belongs to "Cn1c(-c2cc(Br)ccc2O)n[nH]c1=S" ? 10.5%

Can you share its remaining activity at 192 µM? I mean this compound: "O=C(CSc1nnc2c(n1)[nH]c1ccccc12)Nc1ccc(S(=O)(=O)Nc2nccs2)cc1" 23.2%

GET /values?readout=remaining activity at 192 µM&item= "Cc1ccc(S(=O)(=O)Nc2nc(N3C(=O)c4ccccc4C3=O)n(-c3ccccc3)n2)cc1" 13.2%
